Molecular target: Histone-lysine N-methyltransferase EHMT2 (Homo sapiens)
Assay: qHTS Assay for Inhibitors of Histone Lysine Methyltransferase G9a; note: nearly all actives have a fitted effect of over 75% in size
Settings: G9a H3K9 monomethylation, AlphaScreen, 2 h; series mostly up to 59 µM
The campaign covered roughly 350,000 compounds. About 31,000 (8.9%) were called active. About 15% were inconclusive and are not listed. Calls come from the whole dose curve; as a rule, active = well fitted inhibition curve with a large enough effect; inconclusive = small, poorly fitted or top-dose-only effect; inactive = no such curve, though single readings can be large or run the other way. Shown is part of a subset that was picked to be rich in actives.
Outcome codes: y for active, n for inactive

molecule	labelValue
CN(C)CCOc1ccc(Cl)cc1C(C)(C)C	y
CCOC(=O)c1c(NC(=O)C2CCN(S(=O)(=O)c3ccc(Cl)cc3)CC2)sc2c1CCCC2	n
Cc1ccc(-c2n[nH]c(=S)n2/N=C/c2cc3c(cc2[N+](=O)[O-])OCO3)cc1	y
CCC(C)(C)c1ccc(OCC(=O)N(C)C)c(C(C)(C)CC)c1	n
COc1cccc(CNC(=O)c2cc(=O)[nH]c3ccc(S(=O)(=O)N4CCCCC4)cc23)c1	n
O=C(NCC12CC3CC(CC(C3)C1)C2)c1cc2nc(-c3ccccc3)cc(C(F)(F)F)n2n1	n
O=C(OCc1nc2ccccc2[nH]1)C1CCCCC1	n
CC(C)Oc1ccc(/C=C(\NC(=O)/C=C/c2ccco2)C(=O)NCCc2nc3ccccc3[nH]2)cc1	y
COc1ccc(C(=O)NC(=S)NNC(=O)c2c(-c3ccccc3)noc2C)cc1	y
Cc1cccc(C)c1-n1ncc(C(=O)NCCCN2CCCCC2)c1C1CCN(C(=O)OC(C)(C)C)CC1	n
O=C(CCNS(=O)(=O)c1cccs1)N1CCN(c2ccc(F)cc2)CC1	n
COc1ccc(CNS(=O)(=O)c2cc3c4c(c2)CCN4C(=O)CC3)cc1	n
COc1ccc(C(=O)NNC(=S)NC(=O)c2ccccc2)cc1	y
COCCCNC(=S)NC(=O)c1ccccc1	n
Cc1ccc(S(=O)(=O)N2CCN(CC(=O)N/N=C/c3cc([N+](=O)[O-])ccc3Cl)CC2)cc1	n
Cc1ccc(S(=O)(=O)N/N=C\c2cc3c(cc2[N+](=O)[O-])OCO3)cc1	y
Cc1ccc(CNC(=O)c2c(-c3ccccc3)noc2C)cc1	n
COc1ccc(C2Sc3ccccc3NC3=C2C(=O)c2ccccc23)c(OC)c1OC (stereo unspecified)	y
CCCCN(CC)C(=O)c1c[nH]c2ccc(S(=O)(=O)Nc3cccc(OC)c3)cc2c1=O	n
CCOC(=O)c1nc(-c2ccc3c(c2)OCO3)[nH]c1C	n
Cc1onc(-c2ccccc2)c1C(=O)Nc1ccccc1C#N	n

The measurements presented in this section are drawn from PubChem BioAssay AID504332.
